Assay: NCI Yeast Anticancer Drug Screen. Data for the sgs1 mgt1 strain (AID 161)
Details: S. cerevisiae sgs1 mgt1 strain, at 50.0 µM (retest, dose inferred, filed as 5.0), hits give high values
The panel holds about 79,000 compounds, 15% with a hit somewhere; the sample as a whole holds those more often.
Each record gets a class by growth inhibition: LOW = under 70%, MEDIUM = from 70% up to 90%, HIGH = 90% and over

## Task Which band does O=C(O)CCCCCCC(=O)CCl fall in?
## Result MEDIUM

## Task Then what about the compound CCCCCCCCCCCCOC(=O)C[n+]1cccc(C(=O)Nc2ccccc2)c1 ?
## Result HIGH

## Task Repeat for the following compound: Cc1nc(N)sc1N=Nc1ccc(Cl)cc1
## Result LOW

## Task Do the same for Cc1cc(NCCCN(C)C)c2cc3ccc4cccc5ccc(c2n1)c3c45 please
## Result LOW

## Task Do the same for CN1C(=O)c2ccccc2C1(c1ccccc1)c1ccccc1 please
## Result HIGH
